Molecular target: CYP3A4 (Homo sapiens (Human))
Assay: Time-dependent inhibition of site of metabolism of midazolam in human liver microsome CYP3A4
Type: in vitro ADME
Settings: pre-incubation without NADPH
Description: • 1. Phosphate buffer (20×PBS, purchased from Sangon); • 2. NADPH (ACROS, A2646-71-1); • 3. Human liver microsome (Corning Gentest, Cat No. 452161, Lot No. 9050002, Donor, 36); • 4. ABI QTrap 4000 LC-MS System (AB Sciex); • 5. ZORBAX Extend-C18, 3×50 mm, 3.5 m (Agilent, USA); • 6. […] The IC50 value of the drug for the site of metabolism of midazolam in CYP3A4 was calculated by Graphpad Prism and is shown in Table 7.

Structure smiles string	Measurement unit	IC50
[2H]C1([2H])Oc2cc3c(cc2O1)[C@@H](c1ccc(NC2CN(CCCF)C2)cn1)N(CC(F)(F)CO)[C@H](C)C3	µM	19.6

----------
Biological target: CYP3A4 (Homo sapiens (Human), UniProt P08684)
Sequence (P08684 whole entry): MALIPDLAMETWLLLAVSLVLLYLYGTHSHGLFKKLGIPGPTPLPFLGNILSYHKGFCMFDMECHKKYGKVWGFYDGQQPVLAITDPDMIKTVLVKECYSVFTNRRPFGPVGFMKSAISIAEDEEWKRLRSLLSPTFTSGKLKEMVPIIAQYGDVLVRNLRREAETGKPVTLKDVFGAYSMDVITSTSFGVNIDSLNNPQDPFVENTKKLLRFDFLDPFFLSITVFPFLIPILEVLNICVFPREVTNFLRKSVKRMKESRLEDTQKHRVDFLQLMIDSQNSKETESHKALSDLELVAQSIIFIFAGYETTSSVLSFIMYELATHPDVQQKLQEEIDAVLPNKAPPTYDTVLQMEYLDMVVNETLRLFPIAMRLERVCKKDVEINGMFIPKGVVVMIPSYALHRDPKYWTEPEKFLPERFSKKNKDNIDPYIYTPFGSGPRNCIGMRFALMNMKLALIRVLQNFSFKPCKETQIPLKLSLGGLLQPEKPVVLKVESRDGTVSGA
Assay: Inhibition of site of metabolism of testosterone in human liver microsome CYP3A4
Format: in vitro ADME
Settings: 30 min
Procedure: • 1. Phosphate buffer (20×PBS, purchased from Sangon); • 2. NADPH (ACROS, A2646-71-1); • 3. Human liver microsome (Corning Gentest, Cat No. 452161, Lot No. 905002, Donor36); • 4. ABI QTrap 4000 LC-MS System (AB Sciex); • 5. […] A 100 mM PBS buffer was prepared. […] 40 μL of a 0.25 mg/mL microsome solution prepared in 7.5 mM MgCl2 and 20 μL of each of the 375 μM testosterone working solution and the compound working solutions (150, 50, 15, 5, 1.5, 0.15, 0.015 and 0 μM) were measured out and well mixed. […]
Test readout: IC50

Structure smiles string	Result
[2H]C1([2H])Oc2cc3c(cc2O1)[C@@H](c1ccc(NC2CN(CCCF)C2)cn1)N(CC(F)(F)CO)[C@H](C)C3	> 30 µM

----------
Target: CYP3A4 (Homo sapiens (Human), UniProt P08684)
Test: Inhibition of site of metabolism of midazolam in human liver microsome CYP3A4
Assay type: in vitro ADME
Conditions: 30 min
Method: • 1. Phosphate buffer (20×PBS, purchased from Sangon); • 2. NADPH (ACROS, A2646-71-1); • 3. Human liver microsome (Corning Gentest, Cat No. 452161, Lot No. 9050002, Donor, 36); • 4. ABI QTrap 4000 LC-MS System (AB Sciex); • 5. […] A 100 mM PBS buffer was prepared. […] 40 μL of a 0.25 mg/mL microsome solution prepared in 7.5 mM MgCl2 and 20 μL of each of the […] midazolam working solution and the compound working solutions (150, 50, 15, 5, 1.5, 0.15, 0.015 and 0 μM) were measured out and well mixed. […]
pIC50: −log10 of the molar value.

Molecule	pIC50
[2H]C1([2H])Oc2cc3c(cc2O1)[C@@H](c1ccc(NC2CN(CCCF)C2)cn1)N(CC(F)(F)CO)[C@H](C)C3 [Compound 1]	4.81

----------
Molecular target: CYP3A4 (Homo sapiens (Human), UniProt P08684)
Assay: Time-dependent inhibition of site of metabolism of testosterone in human liver microsome CYP3A4
Assay type: in vitro ADME
Settings: testosterone site, pre-incubation without NADPH
Test readout: IC50

Structure smiles string	Target entity	Result
[2H]C1([2H])Oc2cc3c(cc2O1)[C@@H](c1ccc(NC2CN(CCCF)C2)cn1)N(CC(F)(F)CO)[C@H](C)C3	CYP3A4 (Homo sapiens (Human), UniProt P08684)	> 30 µM
